All figures here come from patent EP0184322A1.

# System: histamine stimulated gastric acid secretion
# ASSAY: Rat lumen perfused stomach (modified Ghosh and Schild procedure)
# Type: in vivo
# COND: iv, i.v. administration
Below, each of the compounds is paired with its reported ED50 value.

[
  {
    "COMPOUND": "COc1ccc2[nH]c([S+]([O-])Cc3nccc(N4CCCCC4)c3Br)nc2c1 (centres unmarked) [Example 20]",
    "ED50 / µmol/kg": 0.86
  },
  {
    "COMPOUND": "COc1ccc2[nH]c([S+]([O-])Cc3ncc(C)c(N4CCCC4)c3Cl)nc2c1 (centres unmarked) [Example 14]",
    "ED50 / µmol/kg": 0.82
  },
  {
    "COMPOUND": "COc1ccc2[nH]c([S+]([O-])Cc3nccc(N4CCOCC4)c3Cl)nc2c1 (centres unmarked) [Example 4]",
    "ED50 / µmol/kg": 1.17
  },
  {
    "COMPOUND": "COc1ccc2[nH]c([S+]([O-])Cc3cc(N4CCCCC4)c(Br)cn3)nc2c1 (centres unmarked) [Example 18]",
    "ED50 / µmol/kg": 0.85
  },
  {
    "COMPOUND": "COc1ccc2[nH]c([S+]([O-])Cc3cc(N)c(Br)cn3)nc2c1 (centres unmarked) [Example 2]",
    "ED50 / µmol/kg": 1.46
  }
]
